- TARGET_OR_TEST_SYSTEM: MRGPRX2 (Homo sapiens, UniProt Q96LB1)
- Sequence (Q96LB1 1-330): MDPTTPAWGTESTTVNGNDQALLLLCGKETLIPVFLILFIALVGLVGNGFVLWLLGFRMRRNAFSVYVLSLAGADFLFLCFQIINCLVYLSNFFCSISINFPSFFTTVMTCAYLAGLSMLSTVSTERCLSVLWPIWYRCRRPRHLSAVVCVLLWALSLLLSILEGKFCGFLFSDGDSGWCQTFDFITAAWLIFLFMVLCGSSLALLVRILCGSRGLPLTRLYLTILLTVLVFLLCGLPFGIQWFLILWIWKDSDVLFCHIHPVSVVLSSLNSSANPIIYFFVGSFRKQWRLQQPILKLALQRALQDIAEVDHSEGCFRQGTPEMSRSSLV
- ASSAY_OVERVIEW: MRGPRX2 reporter cell assay (NFAT-RE luciferase, Substance P stimulation)
- Assay type: cell-based
- PARTICULARS: U2OS cells stably transfected with MRGPRX2 and NFAT-RE luciferase reporter; Substance P at EC80
Item-by-item account of pIC50
// field semantics: pIC50 = negative decimal log of concentration (mol/L)

These recorded examples may help you get a feel for the data.
response.value for "CCc1nn2c(c1-c1[nH]c3ncccc3c1-c1cn(C)nc1OC(F)F)OCCC2" (field: pIC50) = 8.24

response.value for "CO[C@@H]1COc2c(-c3[nH]c4ncccc4c3-c3cn(C)nc3OC(F)F)c(C(F)F)nn2C1" (field: pIC50) = 8.64

Now consider the entry below.
response.value for "Cn1cc(-c2c(-c3c(C(F)F)nn4c3OC[C@@H](NC(=O)C3CC3)C4)[nH]c3ncccc23)c(OC(F)F)n1" (field: pIC50) = 8.52
